Molecular target: fibronectin (native, purified from mouse plasma) (mouse, UniProt P11276 33-2477)
Sequence (P11276 33-2477): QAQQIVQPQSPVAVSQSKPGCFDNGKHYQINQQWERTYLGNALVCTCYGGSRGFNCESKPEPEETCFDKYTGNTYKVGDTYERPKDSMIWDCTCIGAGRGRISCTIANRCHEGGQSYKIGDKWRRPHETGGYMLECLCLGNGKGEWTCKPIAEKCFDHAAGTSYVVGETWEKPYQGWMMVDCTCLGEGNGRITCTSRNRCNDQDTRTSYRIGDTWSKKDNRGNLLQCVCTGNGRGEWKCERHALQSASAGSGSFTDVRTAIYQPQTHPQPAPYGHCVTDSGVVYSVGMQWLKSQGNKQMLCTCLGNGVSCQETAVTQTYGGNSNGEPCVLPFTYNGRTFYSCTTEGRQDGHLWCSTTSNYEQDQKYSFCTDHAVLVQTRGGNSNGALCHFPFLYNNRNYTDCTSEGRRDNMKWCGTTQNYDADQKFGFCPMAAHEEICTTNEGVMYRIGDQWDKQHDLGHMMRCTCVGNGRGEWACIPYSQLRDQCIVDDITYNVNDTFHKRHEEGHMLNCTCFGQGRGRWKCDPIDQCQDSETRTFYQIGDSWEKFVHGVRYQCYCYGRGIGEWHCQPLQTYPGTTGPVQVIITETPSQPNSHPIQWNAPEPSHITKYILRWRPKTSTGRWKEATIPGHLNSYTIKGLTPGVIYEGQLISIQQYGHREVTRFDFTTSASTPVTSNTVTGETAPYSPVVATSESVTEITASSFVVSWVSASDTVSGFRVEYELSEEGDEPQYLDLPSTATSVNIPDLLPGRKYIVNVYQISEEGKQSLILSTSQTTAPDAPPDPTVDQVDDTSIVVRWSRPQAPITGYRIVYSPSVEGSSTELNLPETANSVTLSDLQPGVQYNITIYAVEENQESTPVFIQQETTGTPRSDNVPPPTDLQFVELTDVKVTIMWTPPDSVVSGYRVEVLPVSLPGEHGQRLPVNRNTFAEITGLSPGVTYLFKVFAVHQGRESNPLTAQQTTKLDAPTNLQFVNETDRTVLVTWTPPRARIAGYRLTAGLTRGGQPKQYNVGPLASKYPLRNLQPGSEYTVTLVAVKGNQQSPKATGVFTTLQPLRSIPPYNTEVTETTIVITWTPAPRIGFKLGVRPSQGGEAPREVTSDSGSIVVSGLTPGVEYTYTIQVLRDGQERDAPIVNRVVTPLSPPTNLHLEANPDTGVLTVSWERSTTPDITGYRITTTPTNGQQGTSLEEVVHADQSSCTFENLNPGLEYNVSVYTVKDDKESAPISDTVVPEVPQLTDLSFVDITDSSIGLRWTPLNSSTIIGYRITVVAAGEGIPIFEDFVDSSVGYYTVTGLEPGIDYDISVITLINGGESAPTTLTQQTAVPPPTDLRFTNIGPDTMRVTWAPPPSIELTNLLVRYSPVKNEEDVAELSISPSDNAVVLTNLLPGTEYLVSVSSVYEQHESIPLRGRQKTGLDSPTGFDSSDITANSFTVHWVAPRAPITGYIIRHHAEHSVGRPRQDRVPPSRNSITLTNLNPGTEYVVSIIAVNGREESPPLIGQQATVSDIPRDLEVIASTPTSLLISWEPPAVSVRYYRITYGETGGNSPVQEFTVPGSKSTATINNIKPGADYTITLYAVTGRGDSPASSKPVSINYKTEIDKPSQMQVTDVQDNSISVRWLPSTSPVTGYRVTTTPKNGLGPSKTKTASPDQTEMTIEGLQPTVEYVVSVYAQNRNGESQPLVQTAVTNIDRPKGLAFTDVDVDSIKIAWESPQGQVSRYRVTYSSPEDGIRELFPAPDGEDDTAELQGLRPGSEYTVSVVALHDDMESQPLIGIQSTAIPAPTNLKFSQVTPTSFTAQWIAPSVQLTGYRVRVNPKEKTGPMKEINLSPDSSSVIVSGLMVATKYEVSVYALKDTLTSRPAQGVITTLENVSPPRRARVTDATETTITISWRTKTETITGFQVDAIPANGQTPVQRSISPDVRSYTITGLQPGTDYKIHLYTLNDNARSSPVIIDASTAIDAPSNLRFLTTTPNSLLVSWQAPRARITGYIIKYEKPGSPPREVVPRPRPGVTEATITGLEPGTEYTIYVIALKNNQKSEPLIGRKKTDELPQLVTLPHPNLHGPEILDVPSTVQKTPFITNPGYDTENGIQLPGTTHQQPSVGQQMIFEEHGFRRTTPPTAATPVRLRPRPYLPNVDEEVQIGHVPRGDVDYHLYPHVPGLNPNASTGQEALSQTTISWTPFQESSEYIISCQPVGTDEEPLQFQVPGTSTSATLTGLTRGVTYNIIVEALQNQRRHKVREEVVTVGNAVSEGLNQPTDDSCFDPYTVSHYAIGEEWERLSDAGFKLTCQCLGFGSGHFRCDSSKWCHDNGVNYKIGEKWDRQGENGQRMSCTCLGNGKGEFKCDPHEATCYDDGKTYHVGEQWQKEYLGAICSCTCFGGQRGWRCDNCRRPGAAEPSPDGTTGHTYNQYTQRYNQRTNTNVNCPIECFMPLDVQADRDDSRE
Experiment: BLI; BLI: streptavidin biosensors, biotinylated aptamer (500 nM) immobilized, fibronectin analyte, 1x Octet Kinetics Buffer, 30 C, 1:1 fit; pull-down: streptavidin Dynabeads M-270, beads washed in PBS + 5 mM MgCl2
Settings: protein: native; chain copies: 2; label: 5' 6-FAM; 3' BioTEG
Form field: Kd (one value per entry).
# unit: pM | format: bare number

aptamer 6756 (ssDNA) DNA: TGCGTATTGACACATGCGTGAAACGGACTTTTATTAGACAAATAATGCATGTCTCGAATTCAGGCATAGGTATGGGCTTT
921

Continue with the next binder.
Query: Return reported Kd; argument: aptamer 6762 (ssDNA) DNA: TGCGTATTGACACATGCGTGGCTTAATGCAATCCATCTGTTGCATTTTTCTAAACGTCGCCAGGCATAGGTATGGGCTTT
Response: 579
